Below, each entry is listed with its recorded Rat microsome % 60 min.
# assay_explanation: Metabolic stability in rat liver microsomes (in vitro t1/2)
# Assay type: in vitro ADME
# measurement_parameters: rat liver microsomes 0.5 mg/mL, 2 μM compound, % remaining at 60 min
# Method: Metabolic Stability Assays The following are assays that may be used to evaluate the metabolic stability of compounds of Formula (I) in human, rat, or mouse microsomes. The assays follow a common procedure recited below. 1. […] Peak areas were determined from extracted ion chromatograms. The slope value, k, was determined by linear regression of the natural logarithm of the remaining percentage of the parent drug vs. incubation time curve. […]
Write the number in % without appending the unit.

Check out these entries, answers already filled in.
Query: Recorded Rat microsome % 60 min for CC(C)COc1ncc(-c2cc(COC(C)(C)C(=O)O)nn2Cc2ccccc2Cl)s1 , please?
Response: 70

Query: For CC[C@](C)(OCc1cc(-c2cccc(OC)c2)n(Cc2ccccc2Cl)n1)C(=O)O then?
Response: 44

Query: For CCn1ncc2ccc(-c3cc(CO[C@](C)(CC)C(=O)O)nn3Cc3ccccc3Cl)cc21 then?
Response: 86

Query: For CC[C@@](C)(OCc1cc(-c2cc(OC)cc(OC)c2)n(-c2ccccc2Cl)n1)C(=O)O then?
Response: 90

Query: For CCOc1ccccc1Cn1nc(COC(C)(C)C(=O)O)cc1-c1cccc(OC2CC2)c1 then?
Response: 39

Query: For CCOc1ccccc1Cn1nc(COC(C)(C)C(=O)O)cc1-c1cc(Cl)cc(OC)c1 then?
Response: 32

Query: For COc1cc(OC)cc(-c2cc(COC(C)(C)C(=O)O)nn2-c2ccccc2Cl)c1 then?
Response: 85

Query: For CC(C)Cc1ncc(-c2cc(COC(C)(C)C(=O)O)nn2Cc2ccccc2Cl)o1 then?
Response: 85

Query: For CCn1ncc2ccc(-c3cc(COC(C)(C)C(=O)O)nn3-c3ccccc3Cl)cc21 then?
Response: 97

// switching to the query compound
Query: Recorded Rat microsome % 60 min for Cc1ccccc1-n1nc(COC(C)(C)C(=O)O)cc1-c1cccc(OC2CCC2)c1 , please?
Response: 80

====

Below, each entry is listed with its recorded Human microsome % 60 min.
# assay_explanation: Metabolic stability in human liver microsomes (in vitro t1/2)
# Type: in vitro ADME
# measurement_parameters: human liver microsomes 0.5 mg/mL, 2 μM compound, % remaining at 60 min
Write the number in % without appending the unit.

Check out these entries, answers already filled in.
Query: Recorded Human microsome % 60 min for Cn1ncc2cccc(-n3nc(COC(C)(C)C(=O)O)cc3-c3cccc(OC4CC4)c3)c21 , please?
Response: 98

Query: For COc1cccc(-c2c(C)c(COC(C)(C)C(=O)O)nn2Cc2ccccc2Cl)c1 then?
Response: 59

Query: For COc1cc(-c2cc(COC(C)(C)C(=O)O)nn2Cc2ccccc2Cl)cs1 then?
Response: 73

Others:
Query: Recorded Human microsome % 60 min for CCOc1ccccc1Cn1nc(COC(C)(C)C(=O)O)cc1-c1ccc2cnn(CC)c2c1 , please?
Response: 80

====

# assay_explanation: Metabolic stability in mouse liver microsomes (in vitro t1/2)
# Assay type: in vitro ADME
# measurement_parameters: mouse liver microsomes 0.5 mg/mL, 2 μM compound, % remaining at 60 min
Below, each entry is listed with its recorded Mouse microsome % 60 min.
Write the number in % without appending the unit.

Check out these entries, answers already filled in.
Query: Recorded Mouse microsome % 60 min for CC(C)(OCc1cc(-c2cccc(OC3CCC3)c2)n(-c2ccccc2Cl)n1)C(=O)O , please?
Response: 94

Query: For CC(C)(OCc1cc(-c2cccc(OC3CC3)c2)n(-c2ccccc2Cl)n1)C(=O)O then?
Response: 86

Others:
Query: Recorded Mouse microsome % 60 min for CC(C)(OCc1cc(-c2cccc(OC3CC3)c2)n(-c2ccc(F)cc2N2CCC2)n1)C(=O)O , please?
Response: 73
